System: A549 cells
Assay protocol: MTT anti-proliferative assay, A549
Type: cell-based, human
Condition label: Homo sapiens, A549, 48 h, mean ± SD of three experiments
Property: IC50 (µM)

Known IC50 results, listed for orientation:
>>> result("O=C(NNC(=S)Nc1cccc(C(F)(F)F)c1)c1oc2ccccc2c1CN1CCOCC1 [Compound 15c]")
6.3
>>> result("COc1ccc(C=NNC(=O)c2oc3ccccc3c2CN2CCOCC2)cc1 [Compound 17b]")
10.8
>>> result("COc1cccc(NC(=O)NNC(=O)c2oc3ccccc3c2C)c1 [Compound 6a]")
15.1
>>> result("COc1ccc(C(C)=NNC(=O)c2oc3ccccc3c2C)cc1 [Compound 8c]")
16.4
>>> result("COc1ccc(C=NNC(=O)c2oc3ccccc3c2C)cc1 [Compound 8b]")
9.2
>>> result("Cc1c(C(=O)NNC(=S)Nc2ccc(F)cc2)oc2ccccc12 [Compound 4d]")
12.8

I = O=C(NN=C1CCCc2ccccc21)c1oc2ccccc2c1CN1CCOCC1 [Compound 18]
II = COc1ccc(NC(=O)NNC(=O)c2oc3ccccc3c2C)cc1 [Compound 6b]
input: Hey, which is lower on measured IC50, I or II ? Your answer should be the label attached to the chosen record.
output: I

====

Each record here notes measured IC50.
Experimental target: VEGFR-2 (Homo sapiens, UniProt P35968)
Sequence (P35968 20-1356): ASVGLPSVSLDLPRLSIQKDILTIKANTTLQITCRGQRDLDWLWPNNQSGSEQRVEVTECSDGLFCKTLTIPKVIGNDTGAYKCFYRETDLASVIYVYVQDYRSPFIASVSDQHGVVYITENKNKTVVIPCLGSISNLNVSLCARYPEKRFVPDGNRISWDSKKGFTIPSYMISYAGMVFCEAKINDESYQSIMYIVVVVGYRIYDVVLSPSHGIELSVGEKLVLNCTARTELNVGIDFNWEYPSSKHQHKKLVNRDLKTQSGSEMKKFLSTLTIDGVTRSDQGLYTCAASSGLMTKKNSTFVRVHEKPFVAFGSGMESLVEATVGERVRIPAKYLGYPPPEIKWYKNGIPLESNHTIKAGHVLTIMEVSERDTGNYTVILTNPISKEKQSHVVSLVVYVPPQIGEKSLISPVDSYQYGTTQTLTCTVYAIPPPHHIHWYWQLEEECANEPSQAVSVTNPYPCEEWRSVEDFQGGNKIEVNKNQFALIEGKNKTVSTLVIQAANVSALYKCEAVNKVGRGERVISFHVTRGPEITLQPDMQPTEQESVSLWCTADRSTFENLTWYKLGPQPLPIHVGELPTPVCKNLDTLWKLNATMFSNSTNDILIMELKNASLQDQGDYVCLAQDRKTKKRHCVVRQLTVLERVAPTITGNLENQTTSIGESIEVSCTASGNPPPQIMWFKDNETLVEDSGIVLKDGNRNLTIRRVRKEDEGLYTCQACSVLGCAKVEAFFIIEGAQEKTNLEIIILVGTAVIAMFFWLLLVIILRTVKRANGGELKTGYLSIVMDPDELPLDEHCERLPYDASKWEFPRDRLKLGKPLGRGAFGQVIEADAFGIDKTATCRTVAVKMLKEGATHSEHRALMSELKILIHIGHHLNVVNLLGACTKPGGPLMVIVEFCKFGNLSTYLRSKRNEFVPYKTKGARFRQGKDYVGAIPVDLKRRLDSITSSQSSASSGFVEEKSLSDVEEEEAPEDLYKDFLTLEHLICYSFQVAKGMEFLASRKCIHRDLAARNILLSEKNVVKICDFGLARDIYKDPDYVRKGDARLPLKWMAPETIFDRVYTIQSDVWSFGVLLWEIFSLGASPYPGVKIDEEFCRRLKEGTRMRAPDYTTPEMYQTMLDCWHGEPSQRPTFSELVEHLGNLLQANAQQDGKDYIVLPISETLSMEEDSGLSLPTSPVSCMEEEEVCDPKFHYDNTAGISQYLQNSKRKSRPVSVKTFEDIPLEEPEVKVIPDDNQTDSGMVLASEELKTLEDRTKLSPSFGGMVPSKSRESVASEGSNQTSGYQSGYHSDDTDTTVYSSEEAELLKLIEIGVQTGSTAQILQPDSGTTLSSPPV
# number only, unit nM dropped from output

Worked examples follow.
>>> result("COc1ccc(NC(=S)NNC(=O)c2oc3ccccc3c2C)cc1")
78
>>> result("COc1cccc(NC(=O)NNC(=O)c2oc3ccccc3c2CN2CCOCC2)c1 [Compound 16a]")
45.4

Next:
IC50 measured on COc1cccc(NC(=S)NNC(=O)c2oc3ccccc3c2CN2CCOCC2)c1 [Compound 15a] = 132

====

Test system: NCI-H23 cells
Assay protocol: MTT anti-proliferative assay, NCI-H23
Format: cell-based, human
Condition label: Homo sapiens, NCI-H23, 48 h, mean ± SD of three experiments
pIC50: −log10 of the molar value.
Property: pIC50

>>> result("Cc1c(C(=O)NNC(=S)Nc2cccc(C(F)(F)F)c2)oc2ccccc12 [Compound 4c]")
4.61
>>> result("COc1ccc(NC(=O)NNC(=O)c2oc3ccccc3c2C)cc1 [Compound 6b]")
5.03

P = COc1ccc(C=NNC(=O)c2oc3ccccc3c2CN2CCOCC2)cc1 [Compound 17b]
Q = Cc1c(C(=O)NNC(=O)Nc2ccc(Cl)c(C(F)(F)F)c2)oc2ccccc12 [Compound 6c]
input: // which entry reports the smaller pIC50, P or Q ? Reply with the label of the item you choose.
output: Q

====

Test system: M. tuberculosis ATCC 27294
Assay protocol: Microplate Alamar Blue Assay, anti-tubercular activity
Assay type: cell-based
Condition label: Mycobacterium tuberculosis, ATCC27294, 168 h, MABA, 7 days, read-out: MIC
Documented MIC across a set of compounds
Hi! Could you send only the number? It should be in µg/mL, unit omitted.

Recorded results for 3 compounds are shown here.
>>> result("NNC(=O)c1ccncc1 [INH, Isoniazid, reference compound]")
0.24
>>> result("COc1cccc(NC(=S)NNC(=O)c2oc3ccccc3c2CN2CCOCC2)c1 [Compound 15a]")
62.5
>>> result("COc1ccc(NC(=S)NNC(=O)c2oc3ccccc3c2C)cc1 [Compound 4b]")
250

Lab book: MIC of COc1cccc(NC(=O)NNC(=O)c2oc3ccccc3c2CN2CCOCC2)c1 [Compound 16a] noted as 125
